Test system: HOP-92 NSCLC
Assay: NCI tumour cell line growth inhibition, 48 h
Provide the recorded TGI for the entries that follow.

# TGI of Cc1cc(NS(=O)(=O)c2ccc(NC(=O)c3ccc4nc5ccccc5c(Nc5ccc(S(N)(=O)=O)cc5)c4c3)cc2)no1 = 78.3 µM

# TGI of COc1ccc2[nH]c(=O)cc(C)c2c1[N+](=O)[O-] = > 100 µM

# TGI of C#CCNC(CCCN=C(N)N)C(=O)O (configuration not stated) = > 100 µM

# TGI of CC1=CC(=O)c2ccc3c4ccccc4n(C)c3c2C1=O = > 100 µM

# TGI of CC(=O)O[C@H]1[C@@H](N2CCCCC2)C[C@H]2[C@@H]3CC=C4C[C@@H](N5CCCC5)CC[C@]4(C)[C@H]3CC[C@@]21C = > 100 µM

# TGI of COc1cccc(/C=C2\COc3ccc(O)c(O)c3C2=O)c1OC = 8.81 µM

# TGI of CSCCCNC(=O)c1csc(-c2csc(CCNC(=O)CNC(=O)OC(C)(C)C)n2)n1 = > 100 µM

* * *

System: SNB-19 CNS
Assay: NCI tumour cell line growth inhibition, 48 h; in the data active means GI50 below about 0.43 µM; inactive means the rest
API: response.call in active, inactive

In this assay, the call recorded for O=C1C=CC(=O)N1c1ccc2ccccc2c1 was what?
inactive

In this assay, the call recorded for CCc1n(Cc2ccc3ccccc3c2)cc[n+]1Cc1ccc2ccccc2c1 was what?
inactive

In this assay, the call recorded for O=C(Nc1cccc2[nH]c(C(F)(F)F)nc12)c1ccc(Br)cc1F was what?
inactive

In this assay, the call recorded for C[C@H]1CCC/C=C/[C@@H]2C[C@H](O)C[C@H]2[C@H](O)C(O)C(O)C(=O)O1 (some centres undefined) was what?
inactive

In this assay, the call recorded for CC[C@@]1(O)C(=O)OCc2c1cc1n(c2=O)Cc2cc3c(N)c(OC)ccc3nc2-1 was what?
active

In this assay, the call recorded for COc1cc(/C=C/C(=O)c2cccc(-n3cc(-c4ccccc4)[nH]c3=O)c2)ccc1O was what?
inactive

In this assay, the call recorded for O=C1CC[C@@H]2[C@H]3CCC(=O)c4c3c(c3cccc(O)c3c4O)O[C@@]23C(=O)c2cccc(O)c2C(O)=C13 was what?
inactive

In this assay, the call recorded for O=C(N/N=C/c1coc2ccc(Cl)cc2c1=O)c1cc(O)c(O)c(O)c1 was what?
inactive

In this assay, the call recorded for C=CCn1c(C)nc2cc(Nc3nc(N4CCCC4)nc4nc[nH]c34)ccc21 was what?
inactive

* * *

System: MOLT-4 leukemia
Experiment: NCI tumour cell line growth inhibition, 48 h
Provide the recorded TGI for the entries that follow.

Field TGI (system: MOLT-4 leukemia) for entry O=C1c2ccccc2-n2c1nc1ccc([N+](=O)[O-])cc1c2=O = > 100 µM

Field TGI (system: MOLT-4 leukemia) for entry CS(C)(=O)=Nn1c(=O)n2n(c1=O)[C@H]1CC[C@@H]2C1 = > 100 µM

Field TGI (system: MOLT-4 leukemia) for entry c1ccc2c(c1)n1c(N3CCCC3)[n+]3ccccc3c1c1c3cccc[n+]3c(N3CCCC3)n21 = > 100 µM

Field TGI (system: MOLT-4 leukemia) for entry COc1ccc(C)cc1-c1ccc(-c2cc(C)ccc2OC)o1 = > 100 µM

Field TGI (system: MOLT-4 leukemia) for entry CC(=O)O[C@H]1[C@@H](N2CCCCC2)C[C@H]2[C@@H]3CC=C4C[C@@H](N5CCCC5)CC[C@]4(C)[C@H]3CC[C@@]21C = > 100 µM

Field TGI (system: MOLT-4 leukemia) for entry CCN(CC)CCNc1ccc2nc(C)n3c4ccc(OC)cc4c(=O)c1c23 = 1.15 µM

Field TGI (system: MOLT-4 leukemia) for entry O=C1c2ccccc2C(=O)N1CCN(CCN1C(=O)c2ccccc2C1=O)Cc1ccccc1 = > 100 µM

Field TGI (system: MOLT-4 leukemia) for entry CN1CC[C@@]2(c3cccc(O)c3)CC(=O)/C(=C/c3ccc(Cl)c(Cl)c3)[C@H]1C2 = 8.47 µM

Field TGI (system: MOLT-4 leukemia) for entry CCOC(=O)CCC(NC(=O)c1ccc(Oc2nc3cc(N)cc(N)c3nc2-c2ccccc2)cc1)C(=O)OCC (centres undefined) = > 100 µM
